Test: Microsome clearance assay, mouse
Assay type: in vitro ADME
Conditions: male, CD-1, mouse, pooled liver microsomes, pH 7.4, mouse liver microsomes, 0.5 mg/ml protein, 1 mM NADPH, 60 minutes, read-out: Mouse Liver Microsome Clint (μL/min/mg protein)
microsomal CLint at 5 μM listing for selected compounds.
quantity: microsomal CLint at 5 μM (µL/min/mg)

smiles_entry=Cc1c(C(=O)O)n2c3ccc(Cl)c(c13)-c1c(nn3c1COCC3)CSCc1cc(n(C)n1)CSc1cc(c3ccccc3c1)OCCC2 experimental_result=49
smiles_entry=Cc1c(C(=O)O)n2c3ccc(Cl)c(c13)-c1c(nn(C)c1C)CN(C(C)C)Cc1cc(n(C)n1)CSc1cc(c3ccc(F)cc3c1)OCCC2 experimental_result=59.2
smiles_entry=Cc1c(C(=O)O)n2c3ccc(Cl)c(c13)-c1c(nn(C)c1C)CN(S(C)(=O)=O)Cc1cc(n(C)n1)CSc1cc(c3ccccc3c1)OCCC2 experimental_result=43.4
smiles_entry=Cc1c(C(=O)O)n2c3ccc(Cl)c(c13)-c1c(nn3c1COCC3)CN(S(=O)(=O)C1CC1)Cc1cc(n(C)n1)CSc1cc(c3ccc(F)cc3c1)OCCC2 experimental_result=45.2
smiles_entry=Cc1c(C(=O)O)n2c3ccc(Cl)c(c13)-c1c(nn3c1COCC3)CSCc1cc(n(C)n1)CSc1cc(c3ccc(F)cc3c1)OCCC2 experimental_result=41.2
